- testSummary: in vitro
measuredParameter: CC50 (µM)
Numbers only, in µM.

Entry under test: CCN(CC)Cc1cc(Nc2ccnc3cc(Cl)ccc23)ccc1O . Its CC50 was 31

###

- testSummary: in vitro
- testConditions: human
measuredParameter: CC50

Entry CCN(CC)Cc1cc(Nc2ccnc3cc(Cl)ccc23)ccc1O [AQ, Amodiaquine] ; CC50 = > 50 µM

###

- testSummary: in vitro
- testConditions: human
measuredParameter: CC50 (µM)
Answers are plain numbers, in µM.

Note to self: CC50 recorded for CCN(CC)Cc1cc(Nc2ccnc3cc(Cl)ccc23)ccc1O [AQ, Amodiaquine] was 50
